# Test system: 648629-189-R-J1-PDC spheroids with HUVEC/MSC, viability;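 note: spheroids exposed to agents for seven days before reading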
# procedure details: Anticancer human tumor 648629-189-R-J1-PDC patient-derived bladder carcinoma cell line growth inhibition [PI3K]
# recorded conditions: second compound 0.1 µM; first compound 0.0316 µM; active compounds read low
Sorting guide: entries reporting viability, T/C beneath 90% go in the T pile, the rest go in the F pile.

Solved entries:
INSERT INTO results (molecule, label) VALUES
  ('CCN1CCN(Cc2ccc(Nc3ncc(F)c(-c4cc(F)c5nc(C)n(C(C)C)c5c4)n3)nc2)CC1 + CC(Nc1ccc2c(c1)OCCn1cc(N3C(=O)OCC3C(F)F)nc1-2)C(N)=O', 'F'),
  ('CNC(=O)c1ccc(N2C(=S)N(c3ccc(C#N)c(C(F)(F)F)c3)C(=O)C2(C)C)cc1F + CC(Nc1ncnc2nc[nH]c12)c1cc2cccc(Cl)c2c(=O)n1-c1ccccc1', 'F');

Lookup: Find out if reported viability, T/C for CC1(C)CCC(Nc2ncc(C(F)(F)F)c(-c3c[nH]c4c(P(C)(C)=O)c(C#N)ccc34)n2)CN1 (stereo not given) + CC(Nc1ccc2c(c1)OCCn1cc(N3C(=O)OCC3C(F)F)nc1-2)C(N)=O is less than 90%
Found: T

Lookup: Find out if reported viability, T/C for CC1(C)CCC(CN2CCN(c3ccc(C(=O)NS(=O)(=O)c4ccc(NCC5CCOCC5)c([N+](=O)[O-])c4)c(Oc4cnc5[nH]ccc5c4)c3)CC2)=C(c2ccc(Cl)cc2)C1 + COc1c(OCCCN2CCOCC2)ccc2c3n(c(=NC(=O)c4cnc(N)nc4)nc12)CCN3 is less than 90%
Found: T

Lookup: Find out if reported viability, T/C for Cn1ncc(Cl)c1-c1cc(C(=O)NC(CN)Cc2cccc(F)c2)sc1Cl (stereo not given) + CC(Nc1ccc2c(c1)OCCn1cc(N3C(=O)OCC3C(F)F)nc1-2)C(N)=O is less than 90%
Found: T

Lookup: Find out if reported viability, T/C for CC1(C)CCC(CN2CCN(c3ccc(C(=O)NS(=O)(=O)c4ccc(NCC5CCOCC5)c([N+](=O)[O-])c4)c(Oc4cnc5[nH]ccc5c4)c3)CC2)=C(c2ccc(Cl)cc2)C1 + CC(Nc1ccc2c(c1)OCCn1cc(N3C(=O)OCC3C(F)F)nc1-2)C(N)=O is less than 90%
Found: T

Lookup: Find out if reported viability, T/C for CC1(C)CCC(Nc2ncc(C(F)(F)F)c(-c3c[nH]c4c(P(C)(C)=O)c(C#N)ccc34)n2)CN1 (stereo not given) + CC(Nc1ncnc2nc[nH]c12)c1cc2cccc(Cl)c2c(=O)n1-c1ccccc1 is less than 90%
Found: T

Lookup: Find out if reported viability, T/C for CC(C)NCC(C(=O)N1CCN(c2ncnc3c2C(C)CC3O)CC1)c1ccc(Cl)cc1 (stereo not given) + COc1c(OCCCN2CCOCC2)ccc2c3n(c(=NC(=O)c4cnc(N)nc4)nc12)CCN3 is less than 90%
Found: T

Lookup: Find out if reported viability, T/C for Cn1ncnc1[C@H]1c2n[nH]c(=O)c3cc(F)cc(c23)N[C@@H]1c1ccc(F)cc1 + CC(Nc1ccc2c(c1)OCCn1cc(N3C(=O)OCC3C(F)F)nc1-2)C(N)=O is less than 90%
Found: T

Lookup: Find out if reported viability, T/C for Cn1ncc(Cl)c1-c1cc(C(=O)NC(CN)Cc2cccc(F)c2)sc1Cl (stereo not given) + CC(Nc1ncnc2nc[nH]c12)c1cc2cccc(Cl)c2c(=O)n1-c1ccccc1 is less than 90%
Found: F

Lookup: Find out if reported viability, T/C for CC1(C)CCC(Nc2ncc(C(F)(F)F)c(-c3c[nH]c4c(P(C)(C)=O)c(C#N)ccc34)n2)CN1 (stereo not given) + Cc1nc(NC(=O)N2CCCC2C(N)=O)sc1-c1ccnc(C(C)(C)C(F)(F)F)c1 is less than 90%
Found: T

Lookup: Find out if reported viability, T/C for CC1(C)CCC(Nc2ncc(C(F)(F)F)c(-c3c[nH]c4c(P(C)(C)=O)c(C#N)ccc34)n2)CN1 (stereo not given) + COc1c(OCCCN2CCOCC2)ccc2c3n(c(=NC(=O)c4cnc(N)nc4)nc12)CCN3 is less than 90%
Found: T

Lookup: Find out if reported viability, T/C for C#Cc1c(F)ccc2cc(O)cc(-c3ncc4c(N5CC6CCC(C5)N6)nc(OCC56CCCN5CC(F)C6)nc4c3F)c12 (stereo not given) + COc1c(OCCCN2CCOCC2)ccc2c3n(c(=NC(=O)c4cnc(N)nc4)nc12)CCN3 is less than 90%
Found: T
